Test system: UACC-62 melanoma
test-details: NCI-60 one-dose screen, 48 h (100 = growth as untreated, 0 = no growth, -100 = all killed)
measurement-setup: 10 µM unless noted
About 83,000 compounds went through this panel and 20% of them were active in at least one assay; those are over-represented in the sample as a whole.
measurement-name: growth (%)
Could you give me the number in %? Just the number is fine.

Use the examples below as a reference point.
* COc1cc(C2CC(=O)Nc3c2cnn3C)cc(OC)c1OC (stereo not drawn) | 106
* Cc1ccc2c(C)c3c(ccc4ccccc43)c[n+]2c1 | 74.2

Here is the next item to consider.
Notebook: COc1ccc2[nH]cc(C3(c4c[nH]c5ccc(OC)cc45)C(=O)Nc4ccc(Cl)cc43)c2c1 , growth read as 73

----------
Test system: A549/ATCC NSCLC
test-details: NCI-60 one-dose screen, 48 h (100 = growth as untreated, 0 = no growth, -100 = all killed)
measurement-setup: 10 µM unless noted
Description: Growth inhibition of the A549/ATCC human Non-Small Cell Lung tumor cell line is measured as a screen for anti-cancer activity. Cells are grown in 96 well plates and exposed to the test compound for 48 hours. Compounds are tested at a single concentration, which is 10^-5 M for most compounds. The reported endpoint is percent growth (GI% or GIPRCNT), where numbers from 0 - 100% represent growth inhibition, and numbers from -100% - 0 represent cell death. […]
This is part of a sample that, as a whole, favours compounds with a hit. Of some 83,000 tested, about 20% had one in any assay.
measurement-name: growth (%)
Could you give me the number in %? Just the number is fine.

Use the examples below as a reference point.
* Clc1ccc(-c2cnc3c(-c4ccnc(N5CCNCC5)c4)cnn3c2)cc1 | 16.7
* O=C(O)c1cc2cc(OCc3ccccc3)ccc2[nH]1 | 90.9
* CN(C)CCCN1c2ccccc2CCc2ccccc21 | 95.8

Here is the next item to consider.
Notebook: Nc1c(C(=O)Nc2cccc(Cl)c2)sc2nc3c(cc12)C(=O)CCC3 , growth read as 28.2

----------
Each record here notes measured growth.
Test system: OVCAR-3 ovarian
test-details: NCI-60 one-dose screen, 48 h (100 = growth as untreated, 0 = no growth, -100 = all killed)
measurement-setup: 10 µM unless noted
Compounds without any hit were thinned out: in the full panel of roughly 83,000, 20% have a hit.
Could you give me the number in %? Just the number is fine.

* Nc1c(C(=O)Nc2ccccc2)sc2nc3c(cc12)C(=O)CCC3 | -19.4
* Cc1c(C(N)=O)sc2ncn(CC(=O)NN=C3CCCCC3)c(=O)c12 | 107
* O=C(N/N=C/c1ccc([N+](=O)[O-])cc1)c1ccccc1Nc1ccnc(C(F)(F)F)c1 | 91.5

Notebook: CCn1c(Cc2ccccc2Nc2c(Cl)cccc2Cl)nnc1SCC(=O)Nc1ccccc1C(F)(F)F , growth read as 99.9

Notebook: COc1cc(C2CC(c3ccc(C)cc3)=NN2C=O)ccc1Oc1nc2c(c(=O)n(C)c(=O)n2C)n1C (configuration not stated) , growth read as 105

----------
System: NCI-H322M lung
test-details: NCI-60 one-dose screen, 48 h (100 = growth as untreated, 0 = no growth, -100 = all killed)
measurement-setup: 10 µM unless noted
This is part of a sample that, as a whole, favours compounds with a hit. Of some 83,000 tested, about 20% had one in any assay.
measurement-name: growth (%)
Could you give me the number in %? Just the number is fine.

* Nc1ncnc2c1N=C(c1ccc3c(c1)OCO3)CC(c1ccc(Cl)cc1)N2 (stereo not drawn) | 71.2
* O=c1nc(-c2ccccc2)c2cc(-c3ccc(N4CCOCC4)cc3)ccc2[nH]1 | 68.9

Here is the next item to consider.
Notebook: O=C1/C(=C/N2N=C(c3ccc(Cl)cc3)CC2c2ccccc2O)SC(=S)N1c1cccc(C(F)(F)F)c1 (stereo not drawn) , growth read as 71.4

Provenance of the data: PubChem BioAssay (NCI)
